This collection of values is drawn from PubChem BioAssay (NCI).

Kindly state TGI for each of the entries shown.
Test system: SF-295 CNS
method: NCI tumour cell line growth inhibition, 48 h

Which TGI value belongs to "COc1cc(-n2cc(-c3ccc(Cl)cc3)[nH]c2=O)cc(OC)c1OC" ?
> 100 µM

Proceed to OCC12C3C4C1C1C2C3C41CO (configuration not stated)
> 100 µM

Proceed to "O=C(/C=C\c1ccc(Cl)cc1Cl)c1cccs1"
37.9 µM

Proceed to "COc1ccc(/C=C/C(=O)N[C@@H]2C(=O)N3[C@@H]2SC(C)(C)[C@@H]3C(=O)O)cc1"
> 100 µM

Proceed to "N/N=C1/CCCc2nonc21"
> 100 µM

Proceed to "CC1(C)CN=C(Nc2cccc(C(F)(F)F)c2)S1"
> 100 µM

Proceed to "COc1cc([N+](=O)[O-])ccc1NC1=CC(=O)CCC1"
> 100 µM

Proceed to O=S(CCCl)c1c2ccccc2nc2ccccc12 (configuration not stated)
> 100 µM

Proceed to O=C(c1cccnc1)N1N=C(c2ccc(Cl)cc2)CC1(O)c1cc(F)c(Cl)cc1Cl (configuration not stated)
56.1 µM

Proceed to "O=C(Cc1ccc(Cl)c(Cl)c1)N(CCc1ccc(Cl)c(Cl)c1)CCN1CCCC1"
3.84 µM

Proceed to "CN(CCCCN(C)CCc1ccc(Cl)c(Cl)c1)CCCCN1CCCC1"
3.54 µM

Proceed to "CC#C[I+]c1ccccc1"
> 100 µM

====

Kindly state TGI for each of the entries shown.
Tested on: EKVX NSCLC
method: NCI tumour cell line growth inhibition, 48 h

Which TGI value belongs to "O=c1[nH]nc(Cc2ccc(Cl)cc2)n1/N=C\c1ccc(/C=N/n2c(Cc3ccc(Cl)cc3)n[nH]c2=O)cc1" ?
> 100 µM

Proceed to "CCCN(CCC)c1ccc(/C=N/NC(=O)c2cccnc2)c(Cl)c1"
71.4 µM

Proceed to CN(C)c1ccc(/C=C(\NC(=O)c2ccccc2)C(=O)NC(CCC(=O)O)C(=O)O)cc1 (stereo unspecified)
> 100 µM

Proceed to "N.N.NCCCCN.O=C([O-])C1(C(=O)[O-])CCC1.O=C([O-])C1(C(=O)[O-])CCC1.[Pt+4].[Pt+4]"
> 100 µM

Proceed to "COc1ccc(/C=C/c2n[nH]c3ccc(N4CCOC4=O)cc23)cc1"
36.1 µM

Proceed to "COc1cc2c3c(n(CCCNCCCNCCCn4c5c(c6ccccc6c4=O)C(=O)c4ccccc4-5)c(=O)c2cc1OC)-c1cc2c(cc1C3=O)OCO2"
0.578 µM

Proceed to CC1OC(OCC2COC(O)(Oc3c(-c4ccc(O)c(O)c4)oc4cc(O)cc(O)c4c3=O)C(O)C2O)C(O)C(O)C1O (stereo unspecified)
> 100 µM

Proceed to OC1CN2CCS[C@H]2C(O)C1O (stereo partly specified)
> 100 µM

Proceed to CCCCCCCCCCCCCCCCCCOCC(CO[P+](=O)O)OCCCCCCCCCCCCCCCCCC (stereo unspecified)
> 50 µM

Proceed to "NCc1nnn(Cc2ccccc2)c1N"
> 100 µM

Proceed to "O=C(O)CC/C(=N\Nc1nsc2ccccc12)c1ccc(Cl)cc1"
> 100 µM

Proceed to "O=[N+]([O-])c1cc(-[n+]2cc([O-])on2)ccc1F"
34.8 µM

Proceed to O=C1OC(O)C(Oc2ccc(Cl)cc2)=C1Cl (stereo unspecified)
> 100 µM

Proceed to "CC(C)=CC(=O)Cc1nc2cc(C)c(C)cc2[nH]c1=O"
> 100 µM

Proceed to COc1ccc2oc(C(=O)N3CC(CCl)c4ccc([N+](=O)[O-])cc43)cc2c1 (stereo unspecified)
> 100 µM

Proceed to N#CC1=C(N)OC(c2ccc([N+](=O)[O-])cc2)C1(C#N)C#N (stereo unspecified)
39.6 µM

Proceed to "N#Cc1ccnc(N2C(=O)CC[C@H]2C(=O)N(c2cncc(F)c2)[C@H](C(=O)NC2CC(F)(F)C2)c2ccccc2Cl)c1"
> 100 µM

Proceed to CC(C)(C)C(=O)C1CC(=O)c2ccccc2C1=O (stereo unspecified)
> 100 µM

Proceed to "CC(=O)Oc1ccccc1C(=O)O"
> 100 µM

Proceed to "COc1cc(/C=C2\COc3ccc(O)c(O)c3C2=O)cc(OC)c1"
5.53 µM

Proceed to "COc1ccc(C(c2c(O)c3ccccc3n(C)c2=O)c2c(O)c3ccccc3n(C)c2=O)cc1"
> 100 µM
